These records show MIC for Escherichia coli.
EXPERIMENTAL_ENDPOINT: MIC

{"SMILES_TEXT": "CC[C@H](C)[C@H](NC(=O)[C@H](CC(=O)O)NC(=O)[C@H](CC(C)C)NC(=O)[C@H](Cc1ccccc1)NC(=O)CN)C(=O)N[C@H](C(=O)N[C@@H](CCCCN)C(=O)NCC(=O)N[C@H](C(=O)NCC(=O)N[C@@H](CCCCN)C(=O)N[C@H](C(=O)N[C@@H](C)C(=O)N[C@@H](CC(C)C)C(=O)NCC(=O)N[C@@H](C)C(=O)N[C@H](C(=O)N[C@@H](CO)C(=O)N[C@@H](CCCCN)C(=O)N[C@@H](CC(C)C)C(=O)N[C@@H](Cc1ccccc1)C(N)=O)C(C)C)C(C)C)C(C)C)C(C)C", "ENDPOINT_RESULT": "15.1 µM"}
{"SMILES_TEXT": "CC(C)C[C@H](N)C(=O)N[C@@H](Cc1ccc(O)cc1)C(=O)N[C@@H](CCCN=C(N)N)C(=O)N[C@@H](CCCN=C(N)N)C(=O)N[C@@H](CCCN=C(N)N)C(=O)N[C@@H](Cc1ccccc1)C(=O)N[C@H](C(=O)N[C@H](C(=O)NCC(=O)N[C@@H](CCCN=C(N)N)C(N)=O)C(C)C)C(C)C", "ENDPOINT_RESULT": "50 µM"}
{"SMILES_TEXT": "CC[C@H](C)[C@H](NC(=O)[C@H](CC(=O)O)NC(=O)[C@H](Cc1ccccc1)NC(=O)[C@H](CC(C)C)NC(=O)CN)C(=O)N[C@H](C(=O)N[C@@H](CCCCN)C(=O)N[C@@H](CCCCN)C(=O)N[C@H](C(=O)N[C@H](C(=O)NCC(=O)N[C@@H](C)C(=O)N[C@@H](Cc1ccccc1)C(=O)NCC(=O)N[C@@H](CO)C(=O)N[C@@H](CC(C)C)C(N)=O)C(C)C)C(C)C)C(C)C", "ENDPOINT_RESULT": "> 60.6 µM"}
{"SMILES_TEXT": "CC[C@H](C)[C@H](NC(=O)[C@@H](NC(=O)[C@H](C)NC(=O)[C@@H]1CCCN1C(=O)[C@H](Cc1ccccc1)NC(=O)[C@@H](NC(=O)[C@H](CCCCN)NC(=O)[C@H](CO)NC(=O)[C@H](C)NC(=O)[C@@H](NC(=O)[C@H](CCCN=C(N)N)NC(=O)CNC(=O)[C@@H](NC(=O)[C@@H](NC(=O)[C@@H]1CCCN1)C(C)C)C(C)C)C(C)C)C(C)C)C(C)C)C(=O)NCC(=O)N[C@@H](CC(C)C)C(=O)N[C@H](C(=O)N[C@@H](CCCCN)C(=O)N[C@@H](CCCCN)C(=O)O)C(C)C", "ENDPOINT_RESULT": "> 124 µM"}
{"SMILES_TEXT": "CC(C)C[C@H](N)C(=O)N[C@@H](C)C(=O)N[C@@H](Cc1cnc[nH]1)C(=O)N[C@@H](CCCN=C(N)N)C(=O)N[C@@H](Cc1ccc(O)cc1)C(=O)N[C@@H](Cc1cnc[nH]1)C(=O)O", "ENDPOINT_RESULT": "2 µM"}
{"SMILES_TEXT": "CC[C@H](C)[C@H](NC(=O)[C@H](CC(=O)O)NC(=O)[C@H](Cc1ccccc1)NC(=O)[C@H](CC(C)C)NC(=O)CN)C(=O)N[C@H](C(=O)N[C@@H](CCCCN)C(=O)N[C@@H](CCCCN)C(=O)N[C@H](C(=O)N[C@@H](C)C(=O)N[C@@H](CO)C(=O)N[C@H](C(=O)N[C@H](C(=O)NCC(=O)NCC(=O)N[C@@H](CC(C)C)C(N)=O)[C@@H](C)CC)C(C)C)C(C)C)[C@@H](C)CC", "ENDPOINT_RESULT": "> 61.4 µM"}

Data provenance: DBAASP
